experiment: Components of the Cytosolic LPS Sensing Pathway: Gene Identification via Genome-wide siRNA Screen; conditions: RAW264.7 macrophages, IL-1a HTRF, actives lie on both sides, screened at 100 nM (by protocol), cells primed 5 h with Pam3CSK4 first;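 also: robust z of the log signal after scaling to non-targeting control siRNA wells of the plate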
Screen size: about 53,000 sequences; about 3,700 (7%) were called active.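 The calls were made as follows: active = gene knockdowns whose robust z-score for IL-1 alpha signal is at least 2 or at most -2, so actives lie on both sides; inactive = the rest.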 The entries come from a sample that favours actives as a whole.
Outcomes: active, inactive

[[record]]
ordered_residues = "GGCGAAGGGCAAGAAUAAATT against Hes1"
class_label = "active"

[[record]]
ordered_residues = "GCCUAAACCUGAGUUAUAATT against Lrig1"
class_label = "active"

[[record]]
ordered_residues = "GCUCAGCAAUACUUCCUACTT against Itgal"
class_label = "inactive"

[[record]]
ordered_residues = "GGAUCUGAAGAUGAUGAACTT against Ces2e"
class_label = "inactive"

[[record]]
ordered_residues = "GCACAAUGGUGUUAAGUCATT against Ado"
class_label = "active"

[[record]]
ordered_residues = "GGACUUUGCCCUGGAUUCUTT against Cnot1"
class_label = "inactive"

[[record]]
ordered_residues = "CCUCGAGUCACCAACAUCGTT against Stt3b"
class_label = "active"

[[record]]
ordered_residues = "CCAUGUCGUAUGUGAUUCUTT against Hils1"
class_label = "inactive"

[[record]]
ordered_residues = "GGUGGUAGCUUUGUACUUUTT against Nxnl2"
class_label = "inactive"

[[record]]
ordered_residues = "GGUUCUCCAAGGAAAGAGGTT against 2310002L09Rik"
class_label = "active"

[[record]]
ordered_residues = "GCGAUAUCUCAACUUCCCGTT against Fchsd1"
class_label = "inactive"

[[record]]
ordered_residues = "CGAAAUCCUAGUUUCGUCCTT against Spns1"
class_label = "active"

[[record]]
ordered_residues = "GGAAAAGCAGACUUGCACCTT against Npm2"
class_label = "inactive"

[[record]]
ordered_residues = "CGUGUCAGAACUCGAUCUUTT against Tbcel"
class_label = "inactive"

[[record]]
ordered_residues = "GGAAAGAACAACAAAGGAGTT against Snx9"
class_label = "inactive"

[[record]]
ordered_residues = "GCCAGUACGAAGUGAUCUGTT against Ackr4"
class_label = "active"

[[record]]
ordered_residues = "GCAUCAAAUAGUGGUACCUTT against Lsm14a"
class_label = "inactive"

[[record]]
ordered_residues = "GGGAUUUAAAAGGAAAUGUTT against Gbp7"
class_label = "inactive"

[[record]]
ordered_residues = "UAGUCACAAGGUUUGAAACTT against Fbxw24"
class_label = "inactive"

[[record]]
ordered_residues = "GGGUUUAUUUGGUCAAGAUTT against Mpc2"
class_label = "inactive"

[[record]]
ordered_residues = "GGCAUCAAGCACAAGAAAATT against Sys1"
class_label = "inactive"

[[record]]
ordered_residues = "GGACAAGUGUCAGAUAUCATT against Asah2"
class_label = "active"

[[record]]
ordered_residues = "CGGAAGCCUCCACAAAUAATT against Apba1"
class_label = "inactive"

[[record]]
ordered_residues = "CGUGUGCAAAGAAGCUAAATT against Mdm2"
class_label = "inactive"

[[record]]
ordered_residues = "GGCUGACUUUCUGUCACAGTT against Olfr655"
class_label = "inactive"


----------
experiment: Components of the Cytosolic LPS Sensing Pathway: Gene Identification via Genome-wide siRNA Screen; details: RAW264.7 macrophages, IL-1a HTRF, actives lie on both sides, screened at 100 nM (by protocol), cells primed 5 h with Pam3CSK4 first;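 also: robust z of the log signal after scaling to non-targeting control siRNA wells of the plate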
Among all 53,000 sequences or so, about 3,700 (7%) were called active. The full list was thinned out, with actives kept by preference.
Measured property: z-score

[[record]]
ordered_residues = "CCCUAUCAACUGAUCUUUUTT against Scml2"
measured_property = "z-score"
measured_value = -0.732

[[record]]
ordered_residues = "CGAUUUCAUCGAACACUUCTT against Ccnd1"
measured_property = "z-score"
measured_value = 1.37

[[record]]
ordered_residues = "GGUGCAGAGAAGAACAAGATT against Inpp1"
measured_property = "z-score"
measured_value = -0.993

[[record]]
ordered_residues = "GGUGGCCAAACAGGAAAAGTT against Fau"
measured_property = "z-score"
measured_value = 0.91

[[record]]
ordered_residues = "GGUCAAAGUGUAACUUGUUTT against Rwdd4a"
measured_property = "z-score"
measured_value = -0.0956

[[record]]
ordered_residues = "CCGUUGCCUGAUAAGUUCUTT against Klf3"
measured_property = "z-score"
measured_value = 0.576

[[record]]
ordered_residues = "GGAGCAGACGAUAUGCAGATT against Copb2"
measured_property = "z-score"
measured_value = 0.559

[[record]]
ordered_residues = "GGUACCAGGUAUCUUCAUUTT against Pard6g"
measured_property = "z-score"
measured_value = 2.95

[[record]]
ordered_residues = "CCAGUGAUAACUCUCUUGUTT against A830039N20Rik"
measured_property = "z-score"
measured_value = 1.23

[[record]]
ordered_residues = "GAAAACUCAAACAGCAUAUTT against Vmn1r216"
measured_property = "z-score"
measured_value = 0.833

[[record]]
ordered_residues = "GGUACACUAUGAGGUCUGCTT against Traf2"
measured_property = "z-score"
measured_value = 2.07

[[record]]
ordered_residues = "GGAGUUUACGGCUAUUGACTT against Adap2"
measured_property = "z-score"
measured_value = -0.884


FYI, the data here is from PubChem BioAssay AID1508600.
